Entries with reported pIC50 on BTK (Homo sapiens (Human), UniProt Q06187)
Sequence (Q06187 whole entry): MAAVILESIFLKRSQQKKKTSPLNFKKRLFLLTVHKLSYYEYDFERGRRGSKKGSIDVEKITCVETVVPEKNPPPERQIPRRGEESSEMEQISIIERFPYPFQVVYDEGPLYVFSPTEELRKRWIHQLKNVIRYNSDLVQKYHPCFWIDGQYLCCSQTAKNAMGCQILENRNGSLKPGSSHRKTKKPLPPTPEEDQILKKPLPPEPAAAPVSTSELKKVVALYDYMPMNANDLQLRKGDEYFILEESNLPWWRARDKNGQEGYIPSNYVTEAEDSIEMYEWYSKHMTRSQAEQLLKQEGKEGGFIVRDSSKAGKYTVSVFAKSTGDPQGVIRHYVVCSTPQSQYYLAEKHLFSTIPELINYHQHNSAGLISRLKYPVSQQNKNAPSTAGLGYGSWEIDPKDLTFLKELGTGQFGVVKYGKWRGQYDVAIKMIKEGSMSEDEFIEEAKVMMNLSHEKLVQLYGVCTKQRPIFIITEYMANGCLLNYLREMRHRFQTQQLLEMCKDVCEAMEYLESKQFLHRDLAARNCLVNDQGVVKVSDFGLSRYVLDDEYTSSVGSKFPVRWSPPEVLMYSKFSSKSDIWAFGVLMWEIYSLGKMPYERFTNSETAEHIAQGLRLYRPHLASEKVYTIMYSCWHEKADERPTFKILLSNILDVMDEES
pIC50: −log10 of the molar value.

{"columns": ["compound", "qualifying_sign", "pIC50"],
 "data": [
  ["C=CC(=O)Nc1cccc(N(C(=O)NCc2ccccc2)c2cc(Nc3ccc(N4CCN(C)CC4)cc3)ncn2)c1 [Compound 29A]", "=", 7.71],
  ["CN(C)C/C=C/C(=O)Nc1cccc(N(C(=O)OCc2ccccc2)c2ccnc3[nH]ccc23)c1 [Compound 104A]", "<", 5.00],
  ["C=CC(=O)Nc1cccc(N(C(=O)OCc2ccccc2)c2ccnc3[nH]ccc23)c1 [Compound 103A]", "=", 5.65],
  ["C=CC(=O)Nc1cccc(N(C(=O)Nc2ccccc2)c2cc(Nc3ccc(N4CCN(C)CC4)cc3)ncn2)c1 [Compound 25A]", "=", 7.51]
]}

---

Biological target: EGFR Del/T790M/L718Q Ba/F3 cells (Homo sapiens, UniProt P00533, L718Q/T790M, cells depend on it, form not given)
Assay type: cell-based
Details: 1.0 μM drug; Assay 1
Description: The specific cDNAs encoding the oncogenic alterations (EGFR: Del 19, L858R, L718Q, L844V, Del/T790M, L858R/T790M, Del 19/L718Q, Del 19/L844V, Del 19/T790M/L718Q and L858R/T790M/L718Q; FGFR: TEL-FGFR1, TEL-FGFR2, TEL-FGFR1 V561M, TEL-FGFR2 V561M; ALK: EML4-ALK; ROS1: CD74-ROS1) were cloned into the pDNA-Dual (BD Biosciences) vector using standard molecular biology techniques. […] Growth and inhibition of growth was assessed by MTS assay. […]
Reported EGFR activity (% Control, 1.0 μM drug) Assay 1 Del/T790M/L718Q is given for each of the following compounds.
measure: EGFR activity (% Control, 1.0 μM drug) Assay 1 Del/T790M/L718Q (% Control)

{"columns": ["compound", "numeric_readout"],
 "data": [
  ["C=CC(=O)Nc1cccc(N(C(=O)Oc2ccccc2)c2ccnc(Nc3ccc(N4CCN(C)CC4)cc3OC)n2)c1 [Compound 10A]", 76],
  ["C=CC(=O)Nc1ccc(OC)c(Nc2cc(N(C(=O)Nc3c(C)cccc3C)c3ccc(N4CCN(CC)CC4)cc3)ncn2)c1", 90],
  ["Cc1ccc(C(=O)Nc2ccc(CN3CCN(C)CC3)c(C(F)(F)F)c2)cc1C#Cc1cnc2cccnn12", 48],
  ["C=CC(=O)Nc1cccc(N(C(=O)Nc2ccccc2Cl)c2cc(Nc3ccc(N4CCN(C)CC4)cc3OC)ncn2)c1 [Compound 11A]", 84]
]}

---

Reported EGFR activity (% Control, 1.0 μM drug) Assay 2 Del/T790M is given for each of the following compounds.
target: EGFR Del/T790M Ba/F3 cells (Homo sapiens, UniProt P00533, T790M, cells depend on it, form not given); experiment: Ba/F3 cell growth inhibition (MTS assay), EGFR Del/T790M; assay type: cell-based; settings: 1.0 μM drug; Assay 2
measure: EGFR activity (% Control, 1.0 μM drug) Assay 2 Del/T790M (% Control)

{"columns": ["compound", "quantity_unit", "numeric_readout"],
 "data": [
  ["C=CC(=O)Nc1cccc(N(C(=O)Oc2ccccc2)c2ccnc(Nc3ccc(N4CCN(C)CC4)cc3OC)n2)c1 [Compound 10A]", "% Control", 2],
  ["C=CC(=O)Nc1cccc(N(C(=O)Nc2ccccc2)c2cc(Nc3ccc(N4CCN(C)CC4)cc3OC)ncn2)c1", "% Control", 1],
  ["C=CC(=O)Nc1cccc(N(C(=O)Nc2ccccc2Cl)c2cc(Nc3ccc(N4CCN(C)CC4)cc3OC)ncn2)c1 [Compound 11A]", "% Control", 5],
  ["C=CC(=O)Nc1cccc(N(C(=O)NCc2ccccc2)c2cc(Nc3ccc(N4CCN(C)CC4)cc3OC)ncn2)c1", "% Control", 2],
  ["C=CC(=O)Nc1ccc(OC)c(N(C(=O)Nc2c(C)cccc2C)c2cc(Nc3ccc(N4CCN(CC)CC4)cc3)ncn2)c1", "% Control", 100],
  ["C=CC(=O)Nc1ccc(OC)c(Nc2cc(N(C(=O)Nc3c(C)cccc3C)c3ccc(N4CCN(CC)CC4)cc3)ncn2)c1", "% Control", 39]
]}
